experimental system: cholinesterase (Rattus norvegicus)
Construct: The S₁ fraction of a cerebral cortex homogenate from male Wistar rats was used as the cholinesterase source; from tissue; host or cells: S1 fraction of cerebral cortex homogenate, male Wistar rats
Sequence (P37136 32-614): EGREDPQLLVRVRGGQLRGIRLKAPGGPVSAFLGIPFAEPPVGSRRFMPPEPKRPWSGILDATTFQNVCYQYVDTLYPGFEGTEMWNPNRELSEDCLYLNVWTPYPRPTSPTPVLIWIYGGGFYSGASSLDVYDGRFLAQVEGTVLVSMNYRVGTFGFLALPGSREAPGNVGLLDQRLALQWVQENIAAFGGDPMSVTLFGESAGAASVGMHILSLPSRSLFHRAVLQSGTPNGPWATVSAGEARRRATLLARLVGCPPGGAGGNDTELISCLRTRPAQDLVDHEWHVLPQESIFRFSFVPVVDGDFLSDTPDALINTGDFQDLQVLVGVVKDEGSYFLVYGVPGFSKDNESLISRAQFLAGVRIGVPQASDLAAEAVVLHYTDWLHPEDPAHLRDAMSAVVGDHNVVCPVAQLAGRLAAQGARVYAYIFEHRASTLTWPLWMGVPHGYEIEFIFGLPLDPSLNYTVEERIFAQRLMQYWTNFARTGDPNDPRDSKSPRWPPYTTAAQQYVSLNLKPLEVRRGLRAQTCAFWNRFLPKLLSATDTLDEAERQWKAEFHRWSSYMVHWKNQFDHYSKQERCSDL
assay details: Anticholinesterase activity using (acetyl-[³H])-acetylcholine as substrate
Format: biochemical, male Wistar rats
condition details: S₁ fraction of a cerebral cortex homogenate from male Wistar rats as cholinesterase source; incubation 30 minutes; read-out: Anticholinesterase activity, IC₅₀
Where a name gives a salt, the structure may show the parent alone.
attribute measured: pIC50
The scale used: pIC50 is minus the common logarithm of the concentration in molar units.

Data request: Query: pIC50; subject: CCN(CCCCCC(=O)c1ccc(N2CCCC2)cc1)Cc1ccccc1OC [Example 4-3, fumarate]
Data returned: 7.30
